Numbers sourced from PubChem BioAssay (NCI).

# Test system: NCI-H460 lung
# test-details: NCI-60 one-dose screen, 48 h (100 = growth as untreated, 0 = no growth, -100 = all killed)
# assay-context: 10 µM unless noted
This is part of a sample that, as a whole, favours compounds with a hit. Of some 83,000 tested, about 20% had one in any assay.
readout-name: growth (%)
Give bare numbers, in %.

INSERT INTO results (compound, quantitative_readout) VALUES
  ('CC[PH+](CC)CC.O=COC1OC([S-])C(OC=O)C(OC=O)C1OC=O.[Au+] (centres undefined)', -59),
  ('N#CC(C#N)=C(C#N)C#N', 106),
  ('Cc1ccc(NC2=N[C@]34CC(=O)CC[C@]3(C)[C@H]3CC[C@]5(C)C(=O)CC[C@H]5[C@@H]3C[C@@H]4S2)c(C)c1', 45.8),
  ('O=C(Cc1ccccc1)c1ccccc1', 98.9),
  ('Cn1cc(-c2csc(-c3cn(CCCCN4CCOCC4)c4ccc(F)cc34)n2)c2cccnc21', 93.5);

Below is a list of compounds. For each, state its recorded growth.
1. C[C@]12CCc3sc(Nc4ccc(O)cc4)nc3C1=CC[C@@H]1[C@@H]2CC[C@]2(C)C(=O)CC[C@@H]12
2. CC[C@H](C)[C@H](NC(=O)[C@H]1CCCCN1C)C(=O)N(C)[C@H](C(=O)NC12CC(C(=O)N[C@@H](Cc3ccccc3)C[C@H](C)C(=O)OC)(C1)C2)C(C)C

Response given:
1. 65.6
2. 101

Need growth for each of these compounds.
1. CCC(=O)C(CC(C)N1CCCCCC1)(c1ccccc1)c1ccccc1 (centres undefined)
2. COC[C@H]1OC(=O)c2coc3c2[C@@]1(C)C1=C(C3=O)[C@@H]2CCC(=O)[C@@]2(C)C[C@H]1OC(C)=O

Response given:
103
43

* * *

# System: SF-268 CNS
# test-details: NCI-60 one-dose screen, 48 h (100 = growth as untreated, 0 = no growth, -100 = all killed)
# assay-context: 10 µM unless noted
About 83,000 compounds went through this panel and 20% of them were active in at least one assay; those are over-represented in the sample as a whole.
Hi there, I'd appreciate the recorded growth for every entry that follows.
One number for each entry, in %.

// solved cases for growth follow
INSERT INTO measurements (compound, readout_name, quantitative_readout) VALUES
  ('C[C@H](O)CCC(=O)c1ccoc1', 'growth', 98.9),
  ('CSc1cc(/C=C(\C)[C@@H]2C[C@@H]3O[C@]3(C)CCC[C@H](C)[C@H](O)[C@@H](C)C(=O)C(C)(C)[C@@H](O)CC(=O)O2)n(CCNC(=O)OC(C)(C)C)n1', 'growth', 70.6);

Please go through the list and note growth for each compound.
1. CC(=O)C(N)Cc1ccccc1 (stereo not given)
2. CC1=C([Te]c2ccccc2)C(=O)c2ccccc2C1=O
3. C[C@]12CCc3sc(Nc4ccc(OC(F)(F)F)cc4)nc3C1=CC[C@@H]1[C@@H]2CC[C@]2(C)C(=O)CC[C@@H]12

Response given:
105
-18.1
68.6

* * *

# Test system: HOP-62 NSCLC
# test-details: NCI-60 one-dose screen, 48 h
# assay-context: 10 µM unless noted
About 83,000 compounds went through this panel and 20% of them were active in at least one assay; those are over-represented in the sample as a whole. Active and inactive are the calls of the source. The calls were made as follows: active = growth percent below 10; inactive = the rest.
Outcome (select one): t = active, f = inactive

The following molecules have reported results that may help.
INSERT INTO assay_data (molecule, category_label) VALUES
  ('CC[C@H](C)[C@H](NC(=O)[C@H]1CCCCN1C)C(=O)N(C)[C@H](C[C@@H](OC(C)=O)c1nc(C(=O)NC23C4C5C2C2C3C4C52C(=O)OC)cs1)C(C)C (stereo partly specified)', 'f'),
  ('O=C(O)c1cc([N+](=O)[O-])cc([N+](=O)[O-])c1', 'f');

Challenge: # outcome recorded in this test, key = OCCNC1CCCCC1
Response given: f

Challenge: Returns: the outcome recorded for CC1OC(=O)C(C(C)C)NC(=O)C(C(C)C)OC(=O)C(C(C)C)NC(=O)C(C)OC(=O)C(C(C)C)NC(=O)C(C(C)C)OC(=O)C(C(C)C)NC(=O)C(C)OC(=O)C(C(C)C)NC(=O)C(C(C)C)OC(=O)C(C(C)C)NC1=O (stereo unspecified) in this assay.
Response given: t

Challenge: Which outcome did this test record for the molecule CN1CCN(c2ccc(Cl)cc2)CC1 ?
Response given: f

Challenge: Recorded test outcome, item C/C=C(/C)C(=O)O[C@H]1CC[C@@]2(C)[C@@H]3CC[C@H]4[C@]5(O)C[C@H](O)[C@@]6(O)[C@@H](CN7C[C@@H](C)CC[C@H]7[C@@]6(C)O)[C@]5(O)C[C@@]42O[C@@]13O
Response given: t

Challenge: Could you kindly confirm the outcome this assay logged for CC[PH+](CC)CC.O=COC1OC([S-])C(OC=O)C(OC=O)C1OC=O.[Au+] (stereo unspecified) ?
Response given: t

Challenge: Dear all, I need the recorded test outcome for CCOC(=O)c1ccccc1C(=O)OCC , thank you.
Response given: f

Challenge: Please indicate how the test categorized CCOC(=O)C1C(C=C(C)C)C1(C)C (stereo unspecified) .
Response given: f
